Values were extracted from ChEMBL document CHEMBL1130296.

Give pIC50 for every item shown.
Target: Casein kinase II (Homo sapiens, UniProt P19784+P67870+P68400)
Sequence (P67870 whole entry): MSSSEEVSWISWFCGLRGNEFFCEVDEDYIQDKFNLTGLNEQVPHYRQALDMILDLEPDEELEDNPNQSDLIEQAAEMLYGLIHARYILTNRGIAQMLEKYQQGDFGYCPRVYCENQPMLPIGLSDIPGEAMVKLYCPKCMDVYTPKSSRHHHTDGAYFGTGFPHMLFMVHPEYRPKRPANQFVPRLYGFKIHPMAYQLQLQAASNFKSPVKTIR
Sequence (P68400 whole entry): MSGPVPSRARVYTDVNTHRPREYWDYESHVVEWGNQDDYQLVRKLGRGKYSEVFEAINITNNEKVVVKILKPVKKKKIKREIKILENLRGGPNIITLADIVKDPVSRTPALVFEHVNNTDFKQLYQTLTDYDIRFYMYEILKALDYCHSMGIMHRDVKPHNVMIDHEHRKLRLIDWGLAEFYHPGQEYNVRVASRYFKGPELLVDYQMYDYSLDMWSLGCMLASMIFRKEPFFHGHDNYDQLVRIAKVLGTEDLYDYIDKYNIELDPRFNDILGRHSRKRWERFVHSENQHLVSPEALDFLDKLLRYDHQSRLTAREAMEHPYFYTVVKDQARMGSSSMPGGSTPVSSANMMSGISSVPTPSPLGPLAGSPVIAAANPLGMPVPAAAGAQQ
Sequence (P19784 whole entry): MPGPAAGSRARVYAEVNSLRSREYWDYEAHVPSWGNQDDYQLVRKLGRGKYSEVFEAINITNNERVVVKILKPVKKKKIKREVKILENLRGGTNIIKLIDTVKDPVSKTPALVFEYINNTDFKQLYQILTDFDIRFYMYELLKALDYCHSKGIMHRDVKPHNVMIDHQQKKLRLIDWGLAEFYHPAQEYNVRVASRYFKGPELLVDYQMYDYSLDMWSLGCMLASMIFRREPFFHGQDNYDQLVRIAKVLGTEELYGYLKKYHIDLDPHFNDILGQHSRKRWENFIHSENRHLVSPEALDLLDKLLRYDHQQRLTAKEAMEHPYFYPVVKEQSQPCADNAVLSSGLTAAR
Experiment: Inhibitory concentration was determined towards Casein kinase 2
Type: protein-complex assay
Just so you know, pIC50 here is -log10 of the concentration in molar units; reply with that number alone.

**Query** I'd like to know its pIC50. The molecule in question is `O/C(=C/c1ccccn1)c1cccc(Cl)c1Cl`
**Result** 3.89

**Query** I'd like to know its pIC50. The molecule in question is `Nc1cc2cccc[n+]2c2cccc(Cl)c12`
**Result** 4.08

**Query** I'd like to know its pIC50. The molecule in question is `Nc1cc2cccc[n+]2c2cc(Cl)ccc12`
**Result** 4.62

**Query** I'd like to know its pIC50. The molecule in question is `Oc1cc2cccc[n+]2c2ccc(Cl)cc12`
**Result** 3.68

**Query** I'd like to know its pIC50. The molecule in question is `O/C(=C/c1ccccn1)c1c(Cl)cccc1Cl`
**Result** 3.24

**Query** I'd like to know its pIC50. The molecule in question is `Oc1cc2cccc[n+]2c2cccc(Cl)c12`
**Result** 4.74

**Query** I'd like to know its pIC50. The molecule in question is `Oc1cc2cccc[n+]2c2cc(Cl)ccc12`
**Result** 4.41

**Query** I'd like to know its pIC50. The molecule in question is `Nc1cc2cccc[n+]2c2c(Cl)cccc12`
**Result** 4.30

**Query** I'd like to know its pIC50. The molecule in question is `O/C(=C/c1ccccn1)c1ccccc1`
**Result** 2.60

**Query** I'd like to know its pIC50. The molecule in question is `O/C(=C/c1ccccn1)c1ccccc1Br`
**Result** 3.09

**Query** I'd like to know its pIC50. The molecule in question is `O/C(=C/c1ccccn1)c1ccccc1Cl`
**Result** 2.92

**Query** I'd like to know its pIC50. The molecule in question is `O/C(=C/c1ccccn1)c1ccc(Cl)cc1Cl`
**Result** 3.05
